Test Description: in vivo
Condition Set: dog, iv, harmonic mean half-life, β phase
Value Kind: half-life (h)

- CN1CC[C@H](c2c(O)cc(O)c3c(=O)cc(-c4ccccc4Cl)oc23)[C@H](O)C1 (relative stereo): 4.56

====

System: HIV-1HXB2
Test Description: single round of infection in Sx22-1 indicator cells
Assay type: cell-based
Condition Set: Human immunodeficiency virus 1; both single round and viral spread assays, infected cultured cells; read-out: IC50, HIV-1 replication
pIC50: −log10 of the molar value.
Value Kind: pIC50

- CN1CC[C@H](c2c(O)cc(O)c3c(=O)cc(-c4ccccc4Cl)oc23)[C@H](O)C1 (relative stereo) [flavopiridol]: > 8.00
